# PROCEDURE SUMMARY: Growth inhibition of human OVCAR5 cells incubated for 48 hrs by sulforhodamine B assay
# Format: functional
# CONDITION INFO: OVCAR-5, 48 h, read-out: GI50
MEASURE NAME: GI50 (nM)
Number only, in nM; omit the unit.

q: Quick check: GI50 of `Clc1ccc(-c2nc(Nc3ccc(-c4nc5ccccc5[nH]4)cc3)nc(N3CCOCC3)n2)cc1` ?
a: 505

q: Quick check: GI50 of `c1ccc2[nH]c(-c3ccc(Nc4nc(N5CCCCC5)nc(N5CCOCC5)n4)cc3)nc2c1` ?
a: 4060

q: Quick check: GI50 of `c1ccc(-c2nc(Nc3ccc(-c4nc5ccccc5[nH]4)cc3)nc(N3CCOCC3)n2)cc1` ?
a: 2160

q: Quick check: GI50 of `Fc1ccc(-c2nc(Nc3ccc(-c4nc5ccccc5[nH]4)cc3)nc(N3CCOCC3)n2)cc1` ?
a: 2700

* * *

# PROCEDURE SUMMARY: Growth inhibition of human SF295 cells incubated for 48 hrs by sulforhodamine B assay
# Assay type: functional
# CONDITION INFO: SF-295, 48 h, read-out: GI50
MEASURE NAME: GI50 (nM)
Number only, in nM; omit the unit.

q: Quick check: GI50 of `Fc1ccc(-c2nc(Nc3ccc(-c4nc5ccccc5[nH]4)cc3)nc(N3CCOCC3)n2)cc1` ?
a: 1590

q: Quick check: GI50 of `c1ccc(-c2nc(Nc3ccc(-c4nc5ccccc5[nH]4)cc3)nc(N3CCOCC3)n2)cc1` ?
a: 1250

q: Quick check: GI50 of `Clc1ccc(-c2nc(Nc3ccc(-c4nc5ccccc5[nH]4)cc3)nc(N3CCOCC3)n2)cc1` ?
a: 1470

q: Quick check: GI50 of `c1ccc2[nH]c(-c3ccc(Nc4nc(N5CCCCC5)nc(N5CCOCC5)n4)cc3)nc2c1` ?
a: 1850

* * *

# Test system: SN12C
# PROCEDURE SUMMARY: Growth inhibition of human SN12C cells assessed as cell growth at 10^-4 M incubated for 48 hrs by sulforhodamine B assay
# Type: functional
# CONDITION INFO: read-out: Activity
For each of the molecules below, state its growth at 100 µM.
Number only, in %; omit the unit.

q: Quick check: growth at 100 µM of `Fc1ccc(-c2nc(Nc3ccc(-c4nc5ccccc5[nH]4)cc3)nc(N3CCOCC3)n2)cc1` ?
a: -21

q: Quick check: growth at 100 µM of `c1ccc2[nH]c(-c3ccc(Nc4nc(N5CCCCC5)nc(N5CCOCC5)n4)cc3)nc2c1` ?
a: -12

q: Quick check: growth at 100 µM of `Clc1ccc(-c2nc(Nc3ccc(-c4nc5ccccc5[nH]4)cc3)nc(N3CCOCC3)n2)cc1` ?
a: -14

q: Quick check: growth at 100 µM of `c1ccc(-c2nc(Nc3ccc(-c4nc5ccccc5[nH]4)cc3)nc(N3CCOCC3)n2)cc1` ?
a: -59

* * *

For each of the compounds below, state its growth at 1 µM.
# System: CCRF-CEM
# PROCEDURE SUMMARY: Growth inhibition of human CCRF-CEM cells assessed as cell growth at 10^-6 M incubated for 48 hrs by sulforhodamine B assay
# Assay type: functional
# CONDITION INFO: read-out: Activity
Number only, in %; omit the unit.

q: Quick check: growth at 1 µM of `c1ccc2[nH]c(-c3ccc(Nc4nc(N5CCCCC5)nc(N5CCOCC5)n4)cc3)nc2c1` ?
a: 100

q: Quick check: growth at 1 µM of `c1ccc(-c2nc(Nc3ccc(-c4nc5ccccc5[nH]4)cc3)nc(N3CCOCC3)n2)cc1` ?
a: 32

q: Quick check: growth at 1 µM of `Clc1ccc(-c2nc(Nc3ccc(-c4nc5ccccc5[nH]4)cc3)nc(N3CCOCC3)n2)cc1` ?
a: -19

q: Quick check: growth at 1 µM of `Fc1ccc(-c2nc(Nc3ccc(-c4nc5ccccc5[nH]4)cc3)nc(N3CCOCC3)n2)cc1` ?
a: 92
